Please go through the items and note down their TGI.
Test system: U251 CNS
Experiment: NCI tumour cell line growth inhibition, 48 h

Record Nc1ncnc2c1nc(N)n2C1OC(CO)C(O)C1O (stereo not drawn) . Reported TGI: 7.06 µM

Record Cc1cc(C(=O)N2CCN(C)CC2)c2c(=O)n(-c3ccccc3)c(=O)n(CC(O)CN3CCN(c4ncccn4)CC3)c2n1 (stereo not drawn) . Reported TGI: > 100 µM

Record Cc1nn2c(=O)n(-c3cccc(-n4nnc5c(-c6ccccc6)c(C)nn5c4=O)c3C)nnc2c1-c1ccccc1 . Reported TGI: > 100 µM

Record N=C1/C(=C/c2ccccc2)C(=O)N=C2SC=NN12 . Reported TGI: > 100 µM

Record O=S(=O)(c1ccccc1)n1cnc(CCc2ccccc2)n1 . Reported TGI: > 100 µM

Record C=C1C(=O)O[C@H]2[C@H]1CC/C(COC(=O)c1cccc3ccccc13)=C\CC[C@@]1(C)O[C@@H]21 . Reported TGI: 2.68 µM

Record O=c1c(-c2ccc3c(c2)OCO3)coc2c(CO)c(O)ccc12 . Reported TGI: 5.03 µM

Record Cc1ccc2c(n1)C(=O)C(Cl)=C(Nc1ccc(N3CCN(C)CC3)cc1)C2=O . Reported TGI: 3.19 µM

Record O=C1c2cccc3cccc(c23)C(=O)N1CC#Cc1ccc2c3c(cccc13)C(=O)N(CCN1CCNCC1)C2=O . Reported TGI: 3.78 µM

Record CCSC1=C(C#N)C2(CCCCC2)C2=C(CC(C)(C)CC2=O)N1 . Reported TGI: > 100 µM

Record CC(=O)[C@H]1[C@@H](OCc2ccccc2)O[N+]([O-])=C(C)[C@@H]1c1ccccc1 . Reported TGI: > 100 µM

Record COc1cc(-c2ccc(Nc3ccccc3C(=O)O)c(OC)c2)ccc1Nc1ccccc1C(=O)O . Reported TGI: 37.3 µM

Record C[C@@H](Oc1cc(-c2cnn(C3CC4(CNC4)C3)c2)cnc1N)c1c(Cl)ccc(F)c1Cl . Reported TGI: 19.1 µM

Record CC(=O)C1=C(C)N(c2ccc(C)cc2)C2(O)C=CC(=O)C3=C(O)c4ccccc4C(=O)C312 (stereo not drawn) . Reported TGI: 69.6 µM

Record COc1ccccc1/C=C1\N=C(C)OC1=O . Reported TGI: > 100 µM

Record CC1=C(C(=O)Nc2cccc(C(F)(F)F)c2)C(c2ccccc2F)C(C(=O)Nc2cccc(C(F)(F)F)c2)=C(C)N1 . Reported TGI: 27.1 µM

Record COc1ccc(-c2nnc(Nc3nc(O)c(C4=c5cc(OC(F)(F)F)ccc5=NC4=O)s3)o2)cc1 . Reported TGI: 30.7 µM

Record CN(C(=O)C12C3C4C1C1C2C3C41C(=O)N(C)C(C)(C)C)C(C)(C)C (stereo not drawn) . Reported TGI: > 50 µM

Record O=C1NC(=O)C(N2CCc3ccccc32)=C1c1ccc(Cl)cc1 . Reported TGI: > 25 µM

Record O=S1c2ccccc2N=C(c2ccc3ccccc3c2)CC1c1ccccc1F (stereo not drawn) . Reported TGI: > 100 µM

Record CCNC(=S)Nc1c(C#N)c2n(c1C(=O)OCC)CCCCC2 . Reported TGI: > 100 µM

Record C=C(CS(=O)(=O)c1ccccc1)C(=O)OCC . Reported TGI: 30.7 µM

Record CCOC(=O)c1c(SC)nc(-c2ccc(Cl)cc2)sc1=N . Reported TGI: > 100 µM

Record COc1ccc(/C=C/c2ccnc3ccccc23)cc1 . Reported TGI: 31.9 µM

Record CS(=O)/C(C#N)=C\C=C\c1cccc(Cl)c1 (stereo not drawn) . Reported TGI: 7.81 µM

Record COc1ccccc1NC(=O)CC(=O)n1nc(-c2ccccc2)c(N=Nc2ccccc2[N+](=O)[O-])c1-c1ccccc1 . Reported TGI: > 100 µM

Record COC[C@@H]1Cc2cc(OC)c3c(c2[C@H](c2ccc(OC)c(OC)c2)[C@H]1COC)OCO3 . Reported TGI: > 100 µM

Record CC1(C)CC(=O)C(CC2C(=O)c3ccccc3C2=O)C(=O)C1C(=O)C(=O)Nc1cccc2ccc(O)cc12 (stereo not drawn) . Reported TGI: > 100 µM

Record O=[N+]([O-])c1ccc(OP(=O)(O)OCC2OC(CP(=O)(O)O)C(O)C2O)cc1 (stereo not drawn) . Reported TGI: > 100 µM

Record COC(=O)[C@H]1CC(=O)C=C2CCCC21 (stereo partly drawn) . Reported TGI: > 100 µM

Record CCCC1=NC(C(F)(F)F)(C(F)(F)F)N=C(N2CCOCC2)O1 . Reported TGI: > 100 µM

Record CSC1=N/C(=C\c2ccccc2)C(=O)N1CN1CCOCC1 . Reported TGI: > 100 µM

Record CC(=O)Nc1cc(C(c2ccccc2)c2ccccc2)cc(C(c2ccccc2)c2ccccc2)c1C . Reported TGI: > 100 µM

Record CC(C)CC(NC=O)C(=O)NC(Cc1ccccc1)NC(=O)CNC(=O)C(C)NC(=O)OC(C)(C)C (stereo not drawn) . Reported TGI: > 100 µM

Record CC1C(O)[C@@]2(OC[C@@]34C(=O)CC5(O)[C@H](CCC6Cc7nc8c(nc7C[C@]65C)CC5CC[C@@H]6C7=C[C@H]9O[C@@]%10(O[C@@](C)(CO)C[C@@H]%10O)C(C)[C@@]9(O)[C@]7(C)[C@@H](O)CC6[C@]5(C)C8)C3=CC[C@H]4C2C)OC1(C)C (stereo partly drawn) . Reported TGI: 0.101 µM

Record O=[N+]([O-])c1ccc(N/N=C/c2ccccc2O)nc1 . Reported TGI: > 100 µM

Record O=C1NC(=O)/C(=C/c2ccc(S(=O)(=O)N/N=C/c3ccccc3)cc2)N1 . Reported TGI: > 100 µM

Record CCc1cccc(C(C)C)c1NC1=C([n+]2ccc(C)cc2)C(=O)c2ccccc2C1=O . Reported TGI: 12.1 µM
